The following compounds are shown together with reported surviving bacteria, pH =7.2 values.
Tested on: H. pylori cells (SS1)
Assay: pH shock experiment in vivo (urea-dependent survival of H. pylori)
Assay type: cell-based, Helicobacter pylori
Conditions: 100 μM compound, PBS pH 7.2, 5 mM urea, 30 min

As a guide, the following entries are already answered.
>>> recorded_result("c1c2c(cc3c1OCO3)-c1cc3ccc4c(c3c[n+]1CC2)OCO4")
"1.3 ± 0.3 ×10^4 CFU/mL"
>>> recorded_result("COc1ccc2cc3[n+](cc2c1OC)CCc1cc2c(cc1-3)OCO2")
"1.2 ± 0.4 ×10^4 CFU/mL"
>>> recorded_result("COc1cc2c(cc1OC)-c1cc3ccc(OC)c(OC)c3c[n+]1CC2")
"1.2 ± 0.4 ×10^4 CFU/mL"
>>> recorded_result("COc1cc2c(cc1OC)-c1cc3ccc4c(c3c[n+]1CC2)OCO4 [Epiberberine]")
"1.3 ± 0.3 ×10^4 CFU/mL"

The record that follows has no surviving bacteria, pH =7.2 shown yet.
Find the recorded surviving bacteria, pH =7.2 belonging to COc1cc2c(cc1O)CC[n+]1cc3c(OC)c(OC)ccc3cc1-2 and report it.
1.2 ± 0.3 ×10^4 CFU/mL

====

Biological target: jack bean urease (JBU) (Canavalia ensiformis, UniProt P07374)
Construct: purchased Sigma Aldrich (Steineheim, Germany) type III (catalogue number not given)
Sequence (P07374 whole entry, looked up): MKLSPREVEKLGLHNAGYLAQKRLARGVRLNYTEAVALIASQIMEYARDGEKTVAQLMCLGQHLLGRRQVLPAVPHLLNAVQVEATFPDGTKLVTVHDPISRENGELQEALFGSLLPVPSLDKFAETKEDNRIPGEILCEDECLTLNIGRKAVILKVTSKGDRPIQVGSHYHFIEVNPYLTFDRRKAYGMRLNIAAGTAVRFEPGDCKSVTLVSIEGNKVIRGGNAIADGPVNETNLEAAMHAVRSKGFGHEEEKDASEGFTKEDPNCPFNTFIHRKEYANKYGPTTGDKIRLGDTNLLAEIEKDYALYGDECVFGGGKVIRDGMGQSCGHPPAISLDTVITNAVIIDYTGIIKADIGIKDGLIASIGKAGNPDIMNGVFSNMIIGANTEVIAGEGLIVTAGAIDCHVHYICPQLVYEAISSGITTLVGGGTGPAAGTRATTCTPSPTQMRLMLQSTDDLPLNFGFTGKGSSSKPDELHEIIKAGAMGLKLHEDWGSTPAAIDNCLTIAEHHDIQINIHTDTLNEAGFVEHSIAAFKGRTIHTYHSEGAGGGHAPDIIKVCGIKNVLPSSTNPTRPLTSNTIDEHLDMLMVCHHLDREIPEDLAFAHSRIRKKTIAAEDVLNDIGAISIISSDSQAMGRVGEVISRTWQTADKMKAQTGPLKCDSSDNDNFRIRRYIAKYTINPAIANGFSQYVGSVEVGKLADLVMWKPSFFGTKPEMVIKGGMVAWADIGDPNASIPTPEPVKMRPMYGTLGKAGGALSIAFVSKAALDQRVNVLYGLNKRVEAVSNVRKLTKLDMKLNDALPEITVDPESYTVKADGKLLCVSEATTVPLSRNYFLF
Assay: Urease inhibition assay in vitro (modified Berthelot method)
Format: biochemical
REPORTED_PROPERTY: IC50 (µM)
Write the number in µM without appending the unit.

Find the recorded IC50 belonging to c1c2c(cc3c1OCO3)-c1cc3ccc4c(c3c[n+]1CC2)OCO4 [Coptisine] and report it.
260

====

Biological target: H. pylori urease (HPU) (Helicobacter pylori)
Construct: Crude HPU was obtained according to the method described by Matsubara et al; endogenous in cells
Test: Determination of urease inhibition type (Lineweaver-Burk plots)
REPORTED_PROPERTY: Ki (µM)
Write the number in µM without appending the unit.

Test system H. pylori urease (HPU) (Helicobacter pylori); read-out Ki; what value for c1c2c(cc3c1OCO3)-c1cc3ccc4c(c3c[n+]1CC2)OCO4 ?
50

====

Target: jack bean urease (JBU) (Canavalia ensiformis, UniProt P07374)
Construct: purchased Sigma Aldrich (Steineheim, Germany) type III (catalogue number not given)
Assay: Urease inhibition assay in vitro (modified Berthelot method)
Type: biochemical
Settings: 20 min pre-incubation at 37 °C, 150 mM urea, pH 7.5; read-out: IC50 for JBU
REPORTED_PROPERTY: IC50 (µM)
Write the number in µM without appending the unit.

Find the recorded IC50 belonging to CC(=O)NO [Acetohydroxamic acid, reference compound] and report it.
20

====

Target: H. pylori urease (HPU) (Helicobacter pylori, UniProt P69996)
Construct: Crude HPU was obtained according to the method described by Matsubara et al; endogenous in cells; host or cells: cultured Helicobacter pylori (strain not specified)
Sequence (P69996 whole entry): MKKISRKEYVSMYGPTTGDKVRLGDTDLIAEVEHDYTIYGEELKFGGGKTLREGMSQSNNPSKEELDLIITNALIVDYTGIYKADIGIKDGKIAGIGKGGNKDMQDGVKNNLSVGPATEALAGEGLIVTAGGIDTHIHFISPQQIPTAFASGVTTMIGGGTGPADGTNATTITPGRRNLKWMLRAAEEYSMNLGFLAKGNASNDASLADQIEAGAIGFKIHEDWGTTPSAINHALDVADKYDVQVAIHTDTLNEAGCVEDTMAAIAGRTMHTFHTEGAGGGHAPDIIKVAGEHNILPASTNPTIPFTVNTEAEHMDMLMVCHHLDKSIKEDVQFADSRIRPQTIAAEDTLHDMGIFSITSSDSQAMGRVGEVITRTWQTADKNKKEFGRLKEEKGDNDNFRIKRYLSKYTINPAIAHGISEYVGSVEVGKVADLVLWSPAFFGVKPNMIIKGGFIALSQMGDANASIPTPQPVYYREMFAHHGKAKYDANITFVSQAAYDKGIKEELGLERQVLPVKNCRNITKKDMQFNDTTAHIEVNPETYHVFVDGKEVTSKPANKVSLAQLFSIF
Sequence (P14916 whole entry, further chain): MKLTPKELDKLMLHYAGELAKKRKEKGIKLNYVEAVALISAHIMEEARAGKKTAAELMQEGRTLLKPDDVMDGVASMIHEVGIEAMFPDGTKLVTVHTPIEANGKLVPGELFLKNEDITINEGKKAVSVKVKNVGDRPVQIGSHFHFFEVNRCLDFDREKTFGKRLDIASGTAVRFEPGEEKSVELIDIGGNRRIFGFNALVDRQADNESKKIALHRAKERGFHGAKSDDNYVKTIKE
Test: Urease inhibition assay in vitro (modified Berthelot method)
Type: biochemical
Details: 20 min pre-incubation at 37 °C, 150 mM urea, pH 7.5; read-out: IC50 for HPU
REPORTED_PROPERTY: pIC50
Would you please state pIC50, meaning minus log10 of the concentration in mol/L, as a bare number?

Find the recorded pIC50 belonging to CC(=O)NO [Acetohydroxamic acid, reference compound] and report it.
4.05

====

Biological target: H. pylori urease (HPU) (Helicobacter pylori)
Construct: Crude HPU was obtained according to the method described by Matsubara et al; endogenous in cells; host or cells: cultured Helicobacter pylori (strain not specified)
Test: Urease inhibition assay in vitro (modified Berthelot method)
Format: biochemical
REPORTED_PROPERTY: IC50 (µM)
Write the number in µM without appending the unit.

Find the recorded IC50 belonging to c1c2c(cc3c1OCO3)-c1cc3ccc4c(c3c[n+]1CC2)OCO4 and report it.
1780
